- Tested on: P388 leukemia ip, CD2F1 mice, survival T/C
- assay summary: NCI In Vivo Anticancer Drug Screen. Data for tumor model P388 Leukemia (intraperitoneal) in CD2F1 (CDF1) mice
- assay setup: endpoint: median survival time; dose: 120.0 mg/kg/injection; schedule: Q01DX005 (ip); vehicle: saline with Tween-80; higher = longer survival
- Experimental: The antitumor activity of compounds was measured in mice bearing transplantable tumors. Survival or tumor size were measured and the results are expressed as the measurement made in the treated group (T) divided by the measurement made in the vehicle treated control group (C). The tumor model used in this assay is P388 Leukemia (intraperitoneal) in CD2F1 (CDF1) mice
Inconclusive results and toxic doses are left out.
recorded endpoint: T/C

The cases that follow already have their T/C on record.
| compound | T/C |
| --- | --- |
| COc1ccc2c(CC(=O)O)cc(=O)oc2c1 | 120 % of control |
| CN(Cc1ccccc1)C(=O)Nc1c(Cl)cccc1Cl | 99 % of control |
| CC1=CC2=C(C(N)=O)C(=O)OC2(C)C(c2ccccc2)C1 (stereo unspecified) | 101 % of control |

Consider the compound `CCc1cccc(CC)c1NC(=O)c1ccccc1Br` . State its measured T/C.
96 % of control

Please supply the value of reported T/C for the item `Cn1c(=O)ccc2c1nc1ccccc1[n+]2[O-]`
102 % of control

Return value of T/C for input `CC(C)(Cc1nocc1C(C)(C)CC#N)c1cc(CC(C)(C)C2(C)OCCO2)no1` , no commentary.
88 % of control

###

- Tested on: P388 leukemia ip, CD2F1 mice, survival T/C
- assay summary: NCI In Vivo Anticancer Drug Screen. Data for tumor model P388 Leukemia (intraperitoneal) in CD2F1 (CDF1) mice
- assay setup: endpoint: median survival time; dose: 100.0 mg/kg/injection; schedule: Q01DX009 (ip); vehicle: saline; higher = longer survival
Toxic doses and inconclusive results are not listed.
recorded endpoint: T/C

Solved entries (count: 4):
| sample smiles | T/C |
| --- | --- |
| CCN1C(=O)c2ccccc2C1=O | 90 % of control |
| O=C(c1ccccc1)N1CCCCC1 | 100 % of control |
| NNC(=O)c1ccc2ccccc2c1O | 101 % of control |
| Cc1ccc(CCn2c3c(c4cc(Cl)ccc42)CN(C)CC3)cn1 | 102 % of control |

Determine from records and report T/C for `CN(C)CCC(=O)c1ccc(O)cc1`
105 % of control

Respond only with T/C recorded for `O=CNNc1nn2cnnc2c2ccccc12`
94 % of control

Given the molecule `Nc1cc(C(F)(F)F)ccc1-c1ccn[nH]1` , write its reported T/C.
97 % of control

###

- Tested on: P388 leukemia ip, CD2F1 mice, survival T/C
- assay summary: NCI In Vivo Anticancer Drug Screen. Data for tumor model P388 Leukemia (intraperitoneal) in CD2F1 (CDF1) mice
- assay setup: endpoint: median survival time; dose: 100.0 mg/kg/injection; schedule: Q01DX005 (ip); vehicle: Klucel (hydroxypropylcellulose) (HPC); higher = longer survival
Toxic doses and inconclusive results are not listed.
// T/C lookup, one value per entry

| molecule | recorded endpoint | measured |
| --- | --- | --- |
| CC(C)c1ccc(Nc2n[nH]c(=S)s2)cc1 | T/C | 100 % of control |
| O=[N+]([O-])c1ccc(C(Nc2nncs2)Nc2nncs2)cc1 | T/C | 103 % of control |
| NC(=O)N1C(=O)C=CC1=O | T/C | 104 % of control |
| Nc1cccc2c1C(=O)c1ccc(C(=O)O)cc1C2=O | T/C | 104 % of control |
| CSC1=Nc2ccccc2SC(c2ccccc2)C1c1ccccc1 (configuration not stated) | T/C | 95 % of control |
| Nc1nc2c(ncn2[C@@H](CO)OC(CO)CO)c(=O)[nH]1 | T/C | 98 % of control |

Field: next molecule
Report T/C, nothing else, for this molecule: Nc1ncnc2c1ncn2CC(O)CBr (configuration not stated)
104 % of control
